The measured values listed here are drawn from the supplement of paper PMC5412046.

Tested on: SB.mhdgc-1
ASSAY_OVERVIEW: area under the dose-response curve of % viability (trapezoidal, 11 doses) (% viability x log10 concentration); higher = less cytotoxic
CONDITION_LABEL: SB.mhdgc-1 (hereditary c.1380delA CDH1 gastric cancer)
MEASURED_PARAMETER: area under the dose-response curve
When you answer, write just the number.

In the examples that follow, each entry is paired with its recorded area under the dose-response curve.
CNC1CCCN(c2c(F)cc3c(=O)c(C(=O)O)cn(C4CC4)c3c2OC)C1 (stereo not drawn) [Balofloxacin] (top concentration 46.0829 µM)
518
c1ccc2c(-c3cnn4cc(-c5ccc(N6CCNCC6)cc5)cnc34)ccnc2c1 (top concentration 46.0829 µM)
433

Next up:
Prompt: Answer with the recorded area under the dose-response curve for the compound listed here: O=P(O)(O)C(O)(Cc1cccnc1)P(=O)(O)[O][Na] (stereo not drawn) [Risedronate sodium] (top concentration 46.0829 µM)
Response: 506

* * *

# viability annotations
Tested on: SB.mhdgc-1
ASSAY_OVERVIEW: viability at highest tested concentration (MAXR) relative to DMSO; higher = less cytotoxic
CONDITION_LABEL: SB.mhdgc-1 (hereditary c.1380delA CDH1 gastric cancer)
Field format: number, assumed %, no unit text.

In the examples that follow, each entry is paired with its recorded viability.
O=C(O)C1=NC(C(=O)O)CC(/C=C/N2c3cc(O)c(OC4OC(CO)C(O)C(O)C4O)cc3CC2C(=O)O)=C1 (stereo not drawn) [Betanin] (top concentration 46.0829 µM)
133
CC(=O)Nc1ccc(O)cc1 [Acetaminophen] (top concentration 46.0829 µM)
98.4
Cc1n[nH]c(C)c1Cc1sc2c(c1C(=O)N1C[C@H](O)CO1)c(=O)n(C)c(=O)n2CC(C)C (top concentration 46.0829 µM)
92.3

Prompt: Answer with the recorded viability for the molecule listed here: CCOC(=O)C(C#N)C\1C2=CC(=CC=C2O\C(=C1C(=O)OCC)N)Br (stereo not drawn) [HA-14-1] (top concentration 46.0829 µM)
Response: 2.58

Prompt: Answer with the recorded viability for the molecule listed here: Clc1ccc2ncc(-c3cccc(NC4CNC4)n3)n2c1 (top concentration 46.0829 µM)
Response: 40.8

Prompt: Answer with the recorded viability for the molecule listed here: CC(NC1=CC=CC=C1)C\2=C\C(=C/N3C(=O)\C=C(/N=C23)N4CCOCC4)C (stereo not drawn) [TGX-221] (top concentration 46.0829 µM)
Response: 34.9

Prompt: Answer with the recorded viability for the molecule listed here: CCOc1cc2c(c(F)c1OCC)C(=N)N(CC(=O)c1cc(N3CCOCC3)c(OC)c(C(C)(C)C)c1)C2 [E5555] (top concentration 46.0829 µM)
Response: 2.89

Prompt: Answer with the recorded viability for the molecule listed here: Cc1cc(Nc2ncc3c(n2)N(C)C(=O)N(c2cc(NC(=O)c4cccc(C(F)(F)F)c4)ccc2C)C3)n(C)n1 [Pluripotin] (top concentration 46.0829 µM)
Response: 40.4

Prompt: Answer with the recorded viability for the molecule listed here: Nc1cc(c(cc1S(=O)(N)=O)S(N)(=O)=O)C(/Cl)=C(/Cl)Cl [Clorsulon] (top concentration 46.0829 µM)
Response: 46.3

Prompt: Answer with the recorded viability for the molecule listed here: Cc1cn(-c2cc(NC(=O)c3ccc(C)c(Nc4nccc(-c5cccnc5)n4)c3)cc(C(F)(F)F)c2)cn1 [Nilotinib] (top concentration 46.0829 µM)
Response: 2.14

Prompt: Answer with the recorded viability for the molecule listed here: C[C@]12CC[C@@H]3c4ccc(O)cc4CC[C@H]3[C@@H]1[C@@H](O)[C@@H](O)[C@@H]2O [Estetrol] (top concentration 46.0829 µM)
Response: 7.6

Prompt: Answer with the recorded viability for the molecule listed here: CC(=O)O.Cc1c(-c2ccc(O)cc2)n(Cc2ccc(OCCN3CCCCCC3)cc2)c2ccc(O)cc12 [Bazedoxifene] (top concentration 46.0829 µM)
Response: 85.4

Prompt: Answer with the recorded viability for the molecule listed here: CO[C@H]1C[C@@H]2CC[C@@H](C)[C@@](O)(O2)C(=O)C(=O)N2CCCC[C@H]2C(=O)O[C@H]([C@H](C)C[C@@H]2CC[C@@H](OP(C)(C)=O)[C@H](OC)C2)CC(=O)[C@H](C)/C=C(\C)[C@@H](O)[C@@H](OC)C(=O)[C@H](C)C[C@H](C)/C=C/C=C/C=C/1C [Ridaforolimus] (top concentration 46.0829 µM)
Response: 73.6

* * *

Test system: SB.msgc-1
ASSAY_OVERVIEW: area under the dose-response curve of % viability (trapezoidal, 11 doses) (% viability x log10 concentration); higher = less cytotoxic
CONDITION_LABEL: SB.msgc-1 (sporadic gastric cancer)
Structures can show the parent of a compound that is named as a salt.
# area under the dose-response curve annotations
When you answer, write just the number.

In the examples that follow, each entry is paired with its recorded area under the dose-response curve.
COc1ccc2c(c1)[C@]13CCCCC1C(C2)N(C)CC3 (stereo not given in full) [Dextromethorphan hydrobromide] (top concentration 46.0829 µM)
520
CCCCCN(C)CCC(O)(P(=O)([O-])O)P(=O)(O)O [Ibandronate sodium hydrate] (top concentration 46.0829 µM)
547
C[C@H]([C@H](O)CCC(C)(C)O)[C@H]1CC[C@@]2(O)C/3=C/C(=O)[C@@H]4C[C@@H](O)[C@@H](O)C[C@]4(C)[C@H]3CC[C@]12C [Ecdysone] (top concentration 46.0829 µM)
561
C=C1C[C@@]2(O)O[C@@]3(C[C@H]2C(C)C)[C@@H](C)CC[C@@H]13 [Curcumol] (top concentration 46.0829 µM)
556

Next up:
Prompt: Answer with the recorded area under the dose-response curve for the compound listed here: C[C@@H]1CC[C@@]2(CC[C@]3(C)\C(=C/C[C@@H]4[C@@]5(C)C[C@@H](O)[C@H](O)[C@@](C)(CO)[C@@H]5CC[C@@]34C)[C@@H]2[C@H]1C)C(O)=O [Asiatic acid] (top concentration 46.0829 µM)
Response: 520

* * *

# viability annotations
Tested on: SB.mhdgc-1
ASSAY_OVERVIEW: viability at highest tested concentration (MAXR) relative to DMSO; higher = less cytotoxic
CONDITION_LABEL: SB.mhdgc-1 (hereditary c.1380delA CDH1 gastric cancer)
Structures can show the parent of a compound that is named as a salt.
Field format: number, assumed %, no unit text.

In the examples that follow, each entry is paired with its recorded viability.
CC(C)c1ccc2oc3nc(N)c(C(=O)O)cc3c(=O)c2c1 [Amlexanox] (top concentration 46.0829 µM)
70
NNC(=O)c1ccncc1 [Isoniazid] (top concentration 46.0829 µM)
115
NCCc1ccc(O)c(O)c1 [Dopamine HCl] (top concentration 46.0829 µM)
49

Next up:
Prompt: Answer with the recorded viability for the compound listed here: C[S+](=O)([O-])Oc1ccc2c(NC(N)=O)c(C(=O)c3ccc(Cl)cc3Cl)oc2c1 [Lirimilast] (top concentration 46.0829 µM)
Response: 66.1

* * *

# area under the dose-response curve annotations
System: SB.msgc-1
ASSAY_OVERVIEW: area under the dose-response curve of % viability (trapezoidal, 11 doses) (% viability x log10 concentration); higher = less cytotoxic
CONDITION_LABEL: SB.msgc-1 (sporadic gastric cancer)

In the examples that follow, each entry is paired with its recorded area under the dose-response curve.
Cc1ccccc1C(C(=O)NC1CCCCC1)N(C(=O)CNc1ccc(C#N)cc1)c1cccc(F)c1 (stereo not drawn) [IDH-C227] (top concentration 46.0829 µM)
505
CCNc1cc(NC2CCC(O)CC2)nc(Nc2ccc3c(ccn3Cc3ccccc3)c2)n1 (stereo not drawn) [Cdk4/6 Inhibitor IV] (top concentration 46.0829 µM)
487

Next up:
Prompt: Answer with the recorded area under the dose-response curve for the compound listed here: O=C(O)C1(Cc2cccc(Nc3nccs3)n2)CCC(Oc2cccc(Cl)c2F)CC1 (stereo not drawn) [MK-5108] (top concentration 46.0829 µM)
Response: 485

* * *

Tested on: SB.msgc-1
ASSAY_OVERVIEW: AC50 for growth inhibition (viability) (log10 M); higher = less potent
CONDITION_LABEL: SB.msgc-1 (sporadic gastric cancer)
Hi! Just check whether AC50 for growth inhibition (log10 M) is below -5. Below gives y, equal or above gives n.

Solved entries (count: 2):
CN1CC[C@H]([C@@H](O)C1)C2=C(O)C=C(O)C3=C2O\C(=C/C3=O)C4=CC=CC=C4Cl
y
O=c1cc(O)c(Cl)c[nH]1 [Gimeracil]
n

Prompt: Threshold test, AC50 for growth inhibition (log10 M) < -5: CC(C)C[C@H](NC(=O)[C@@H](NC(=O)c1cccc(-c2ccccc2)n1)[C@@H](C)O)B(O)O [Delanzomib]
Response: y

* * *

Tested on: SB.msgc-1
ASSAY_OVERVIEW: viability at highest tested concentration (MAXR) relative to DMSO; higher = less cytotoxic
CONDITION_LABEL: SB.msgc-1 (sporadic gastric cancer)
Where a name gives a salt, the structure may show the parent alone.
MEASURED_PARAMETER: viability (%)
Field format: number, assumed %, no unit text.

OCc1ccc(-c2ccc(-c3ccc(CO)s3)o2)s1 [RITA] (top concentration 46.0829 µM)
42
OC1=CC=C(C=C1)\C2=C\OC3=C(C(=CC(=C3)O)O)C2=O [Genistein] (top concentration 46.0829 µM)
95
CN(Cc1cc(Br)cc(Br)c1N)C1CCCCC1 [Bromhexine hydrochloride] (top concentration 46.0829 µM)
105
CC(C)Oc1ccc(C(=O)N[C@H](CNC(=O)CN(C)C)Cc2ccc(-c3cn4cccc([C@H](C)O)c4n3)cc2)cc1Cl (top concentration 46.0829 µM)
38.2

Prompt: Answer with the recorded viability for the molecule listed here: COC1=C(OCCCN2CCOCC2)C=CC\3=C1/N=C(/NC(=O)C4=CN=C(N)N=C4)N5CC/N=C35 [BAY-80-6946] (top concentration 23.0415 µM)
Response: 49.5

Prompt: Answer with the recorded viability for the molecule listed here: CN1C2=CC(=O)/C(=N/NC(N)=O)C=C2CC1S(=O)(=O)[O-].[Na+] (configuration not stated) [Carbazochrome sodium sulfonate] (top concentration 46.0829 µM)
Response: 120

Prompt: Answer with the recorded viability for the molecule listed here: NC1=NC=C(C=C1)C2=CC=C3N=CC\4=C(N(C(=O)\C=C4)C5=CC(=CC=C5)C(F)(F)F)C3=C2 [Torin-2] (top concentration 46.0829 µM)
Response: 21.2

Prompt: Answer with the recorded viability for the molecule listed here: O=C1Nc2ccccc2/C1=C1\Nc2ccccc2C1=O [Indirubin] (top concentration 46.0829 µM)
Response: 57.6

Prompt: Answer with the recorded viability for the molecule listed here: CC(=O)NC(CS)C(=O)O (configuration not stated) [Acetylcysteine] (top concentration 46.0829 µM)
Response: 108

Prompt: Answer with the recorded viability for the molecule listed here: C[C@H]1[C@@H](CC(C[C@H]2O[C@@H]3O[C@]4(C)CC[C@H]5[C@H](C)CC[C@@H]([C@H]2C)[C@@]35OO4)C[S+](=O)([O-])c2ccc(COC(=O)N(C)C)cc2)O[C@@H]2O[C@]3(C)CC[C@H]4[C@H](C)CC[C@@H]1[C@@]24OO3 [ASR-isobudimer-SO2Ph-4-CH2OC(O)NMe2] (top concentration 46.0829 µM)
Response: 70.4

Prompt: Answer with the recorded viability for the molecule listed here: O=C1C(CCC(O)c2ccc(F)cc2)C(c2ccc(O)cc2)N1c1ccc(F)cc1 (configuration not stated) [Ezetimibe] (top concentration 46.0829 µM)
Response: 94.6

Prompt: Answer with the recorded viability for the molecule listed here: CC(C)N(CC[C@H](c1ccccc1)c1cc(CO)ccc1O)C(C)C (top concentration 46.0829 µM)
Response: 110
